# experimentNotes: amyloid nucleation score (Sup35N fusion, yeast selection) (log enrichment); library NNK1; higher = more nucleation; inactive = no reads after selection;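 note: zero at mode of non-aggregating sequences after 7 days selection at 30°C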
recordedEndpoint: amyloid nucleation score
The answer should be a number; do not append a unit.

entrySequence | recordedEndpoint | reportedMeasurement
LEWGQPHPCSGFRKCWYSDV | amyloid nucleation score | 0.136
FGWLFVCEVSAAGPPTLIWT | amyloid nucleation score | 3.11
QFIRILDQSKILYLCCFLDT | amyloid nucleation score | 5.64

// query I have this sequence here, `ACRDVGHSVVLCKFKS` , and I need its recorded amyloid nucleation score.
// result -1.01

---

# experimentNotes: amyloid nucleation score (Sup35N fusion, yeast selection) (log enrichment); library NNK1; higher = more nucleation; inactive = no reads after selection
Quick list: amyloid nucleation score per entry.

// query I have this substance here, `VNDYWNFCYVCWKYQSIILY` , and I need its recorded amyloid nucleation score.
// result 3.14
